System: U251 CNS
Assay: NCI-60 one-dose screen, 48 h (100 = growth as untreated, 0 = no growth, -100 = all killed)
Details: 10 µM
This is part of a sample that, as a whole, favours compounds with a hit. Of some 83,000 tested, about 20% had one in any assay.
Each record's growth is compared with low: < 20%; intermediate: ≥ 20% and < 90%; high: ≥ 90% to give its class.

[[record]]
compound = "Cc1cc(Cl)ccc1Nc1nc(C(F)(F)F)ccc1C(=O)N/N=C/c1ccccc1Cl"
group = "intermediate"

[[record]]
compound = "O=S(=O)(NCCO)c1ccc(OCCOc2ccc(S(=O)(=O)NCCO)cc2)cc1"
group = "high"

[[record]]
compound = "CCCCCCCCCCCCCCCCn1cc[n+](C)c1"
group = "low"

[[record]]
compound = "COc1ccc(/C=C2\\SC(=S)N(CCCN3CCOCC3)C2=O)c(OC)c1"
group = "high"

[[record]]
compound = "COc1ccc(OC)c([N+](=O)[O-])c1C=O"
group = "high"

[[record]]
compound = "Cc1cc(C#Cc2ccccc2)ccc1-n1c(/C=C/c2cc(O)ccc2O)nc2ccccc2c1=O"
group = "low"

[[record]]
compound = "CC(C)OP(=O)(O)c1ncc(-c2ccc(C(F)(F)F)cc2)c(NC2CCCCCC2)n1"
group = "intermediate"

[[record]]
compound = "C=CCOc1ccc2c(c1)CC[C@@H]1[C@@H]2CC[C@]2(C)C(=O)/C(=N/O)C[C@@H]12"
group = "intermediate"

[[record]]
compound = "COc1ccc(-n2nnc3c(sc4ccccc43)c2=O)cc1"
group = "low"

[[record]]
compound = "COc1ccc(-c2nc(-c3nc4ccc(C)cc4[nH]3)c3ccccn23)cc1"
group = "intermediate"

[[record]]
compound = "COc1ccc(-c2cc(/C=C3\\C(=O)Nc4cc(Cl)ccc43)[nH]n2)cc1OC"
group = "intermediate"

[[record]]
compound = "O=C(NCCCl)c1cc(Cl)cc(Cl)c1"
group = "high"

[[record]]
compound = "COc1c(C)c(C)c(OC)c2c1[nH]c(=O)c1c3cccnc3cn21"
group = "high"

[[record]]
compound = "CC(=O)c1ccc(NCn2nc(-c3ccc(Cl)cc3)oc2=S)cc1"
group = "high"

[[record]]
compound = "CCNC(=S)NN"
group = "intermediate"

[[record]]
compound = "NC(=O)c1ccc(Br)o1"
group = "high"

[[record]]
compound = "COc1cccc(-c2nnc(COc3ccc(-c4nc5ccc(C)cc5[nH]4)cc3OC)o2)c1"
group = "intermediate"

[[record]]
compound = "Cc1ccc2c(c1)-c1cc(C)nn1-c1ccc(C#N)cc1O2"
group = "intermediate"

[[record]]
compound = "Cc1ncc([N+](=O)[O-])n1CCOc1ccc(C(=O)/C=C/c2ccc(C(F)(F)F)cc2)cc1"
group = "intermediate"

[[record]]
compound = "COc1ccc(C(C)=O)cc1N1C(=O)C2C(C1=O)C1(c3ccccc3)C(=O)C2(c2ccccc2)C(c2ccc(C)cc2)=C1c1ccc(C)cc1 (stereo not drawn)"
group = "low"

[[record]]
compound = "COc1cccc(C2(C)Nc3ccccc3-c3nc4ccccc4n32)c1 (stereo not drawn)"
group = "high"

[[record]]
compound = "COc1cc(CSc2nc3ccc(Cl)cc3c(=O)n2Cc2ccccc2)cc(OC)c1OC"
group = "intermediate"

[[record]]
compound = "NC1CCC(Nc2nc(NCc3ccc(-c4ccco4)nc3)c3ncn(C4CCCC4)c3n2)CC1 (stereo not drawn)"
group = "low"

[[record]]
compound = "O=S(=O)(O)C1(O)CCCCC1"
group = "high"

[[record]]
compound = "COCCNCC(O)Cn1c2ccc(Cl)cc2c2cc(Cl)ccc21 (stereo not drawn)"
group = "low"

[[record]]
compound = "CC(=O)Oc1ccc(C2=Cc3ccc(OC(C)=O)cc3OC2C)cc1 (stereo not drawn)"
group = "intermediate"

[[record]]
compound = "C#CCNCCCN1C(=O)c2ccc3c4c(ccc(c24)C1=O)C(=O)N(CCCNCC#C)C3=O"
group = "low"

[[record]]
compound = "COc1cccc(-c2nnc(COc3ccc(-c4nc5ccccc5[nH]4)cc3OC)o2)c1"
group = "high"

[[record]]
compound = "CC(=O)CS(C)(=O)=O"
group = "high"

[[record]]
compound = "N=C(N)c1ccc(-c2ccc(-c3ccccc3)s2)cc1F"
group = "low"

[[record]]
compound = "N=C(N)c1ccc(-c2ccc(-c3ccccc3)s2)s1"
group = "low"

[[record]]
compound = "Nc1ccc2c(c1)Cc1cc(N)c(Cl)cc1-2"
group = "high"

[[record]]
compound = "NC1CCC(Nc2nc(NCc3ccc(-c4ccccc4O)nc3)c3ncn(C4CCCC4)c3n2)CC1 (stereo not drawn)"
group = "low"

[[record]]
compound = "COC(=O)[C@]12CC[C@@H](C)[C@H](C)[C@@H]1C1=CC[C@@H]3[C@@]4(C)C[C@@H](O)[C@H](O)[C@@](C)(CO)[C@@H]4[C@H](O)C[C@@]3(C)[C@]1(C)CC2"
group = "low"

[[record]]
compound = "Cc1nc(N)sc1Sc1nc2ccc(Cl)cc2c(=O)n1-c1ccc(Oc2ccccc2)cc1"
group = "intermediate"

[[record]]
compound = "Fc1ccc2[nH]c3c(NCCCN4CCOCC4)ncnc3c2c1"
group = "intermediate"

[[record]]
compound = "OC(CNC1CCCC1)Cn1c2ccccc2c2ccccc21 (stereo not drawn)"
group = "low"

[[record]]
compound = "CC(C)c1[nH]nc2c(NCc3ccc(-c4ccccn4)cc3)nc(SCCN)nc12"
group = "low"

[[record]]
compound = "COc1cc(/C=C/C(=O)c2cc(-c3ccc(C(F)(F)F)cc3)ccc2O)cc(OC)c1OC"
group = "intermediate"

[[record]]
compound = "O=C(N/N=c1/ccoc2cccnc12)N1CCN(c2ncccn2)CC1"
group = "low"

[[record]]
compound = "O=C1/C(=C/c2ccc([N+](=O)[O-])s2)Oc2ccc(Cl)cc21"
group = "low"

